B1: library; numbered along this chain (parent)
chain: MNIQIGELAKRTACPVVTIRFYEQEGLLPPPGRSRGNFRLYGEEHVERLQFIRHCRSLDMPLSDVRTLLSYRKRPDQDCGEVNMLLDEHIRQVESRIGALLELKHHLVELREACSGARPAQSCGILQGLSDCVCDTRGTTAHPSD

- Variants of: B1
- Method: sfGFP reporter fluorescence (15 h) (µM FITC); higher = stronger transcriptional activation
- Study conditions: library round: Round 1; ligand: 1 µM Pb
Please mark yes if the recorded sfGFP reporter fluorescence is equal to or greater than 0.1, and no if it falls below.

- Seq: "MNIQIGELAKRTACPVVTIRFYEQEGLLPPPGRSRGNFRLYGEEHVERLQFIRHCRSLDMNLSDVRTLLSYRKRPDQDCGEVNMLLDEHIRQVESRIGALLELVHHEVELREACSGARPAQSCGILQGLSDCVCDTRGTTAHPSD [P61N K104V L107E]"
  Qualitative label: "no"
- Seq: "MNIQIGELAKRTACPVVTIRFYEQEGLLPPPGRSRGNFRLYGEEHVERLQFIRHCRSLDMPLSDVRTLLSYRKRPDQDCGEVSMLLDEHIRQVDSRIGALLELAHHLVELREACSGARPAQSCGILQGLSDCVCDTRGTTAHPSD [N83S E94D K104A]"
  Qualitative label: "no"
- Seq: "MNIQIGELAKRTACPVVTIRFYEQEGLLPPPGRSRGNFRLYGYEHVERLQFIRHCRSLDMNLSDVRTLLSYRKRPDQDCGEVNMLLDEHIRQVESRIGALLELKHHLVELREACSGARPAQSCGILQGLSDCVCDTRGTTAHPSD [E43Y P61N]"
  Qualitative label: "yes"
- Seq: "MNIQIGELAKRTACPVVTIRFYEQEGLLPPPGRSRGNFRLYGEEHVERLQFIRHCRSLDMPLSDVRTLLSYRKRPDQDCGEVNMLLDEHIRQVESRIGALLELKHHLVELREACSGARPAQSCGILQGLSSCVCDTRGTTAHASD [D131S P143A]"
  Qualitative label: "no"
- Seq: "MNIQIGELAKRTACPVVTIRFYEQEGLLPPPGRSRGNFRLYGEEHVERLQFIRHCRSLDMPLSDVRTLLSYRKRPDQDCGEVTMLLDEHIRQVESRIGALLELKHHLVELREACSGARPAQSCGILQGLSSCVCRTRGTTAHPSD [N83T D131S D135R]"
  Qualitative label: "no"

[in] For this variant, is measured sfGFP reporter fluorescence 0.1 or higher? MNIQIGELAKRTACPVVTIRFYEQEGLLPPPGRSRGNFRLYGEEHVERLQFIRHCRSLDMPLSKVRTLLSYRKRPDQDLGEVNMLLDEHIRQVESRIGALLELKHHLVELREACSGARPAQSCGILQGLSDCVCDTRGTTAHPSD [D64K C79L]
[out] no

[in] How about this variant: MNIQIGELAKRTACPVVTIRFYEQEGLLPPPGRSRGNFRLYGEEHVERLQFIRHCRSLDMPLSDVRTLLSYRKRPDQDCGEVNMLLDEHIRQVESRIGALLELKHHLVELREACSGARPAQSCGILQGLSACVCSTRGTTAHPSD [D131A D135S]
[out] no
